assay: Oral bioavailability in rat; type: ADME, organism-based; settings: in vivo
Endpoint: bioavailability (%)

1) O=C([O-])C1C/C(=C2/CCN(c3ccccc3)C2=O)c2ccc(Cl)cc2N1.[Na+] (stereo unspecified)	76

----------
assay: Half life in dog at 1 mg/kg, iv or 3 mg/kg, po; format: ADME, organism-based, Canis lupus familiaris; settings: in vivo
Endpoint: half-life (h)

1. O=C(/C=C1\CC(C(=O)[O-])Nc2cc(Cl)ccc21)Nc1ccccc1.[Na+] (stereo unspecified)	2.4

----------
assay: Half life in rat at 1 mg/kg, iv or 3 mg/kg, po; type: ADME, organism-based; conditions: in vivo
Endpoint: half-life

1) O=C(/C=C1\CC(C(=O)[O-])Nc2cc(Cl)ccc21)Nc1ccccc1.[Na+] (stereo unspecified)	1.4 h
